Recorded values, source paper PMC2756588.

- TESTED ON: T1, Hof1, Q05080
- T1 sequence (Q05080 590-669, looked up): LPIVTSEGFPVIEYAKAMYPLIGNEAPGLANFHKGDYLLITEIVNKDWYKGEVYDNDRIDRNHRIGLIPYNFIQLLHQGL
- TEST: SPOT array
- CONDITION DETAILS: median of control spots 4086
QUANTITY MEASURED: SPOT intensity

Query string: Record request: SPOT intensity value, item IPSRPAPKPPSSASA
Result string: 0

Query string: Would you kindly share the measured SPOT intensity for PKMLPIPSKPTLFDL ?
Result string: 0

Query string: SPOT intensity for GDHPKGPPPPPPPPD ?
Result string: 0
